# System: K562 (human immortalized myelogenous leukemia) cells
# METHOD_NOTES: Cytotoxic activity, WST-1 assay, K562
# Format: cell-based
# TEST_PARAMETERS: 72 h, WST-1, triplicate

COMPOUND	IC50
COc1ccc(N2C(=O)[C@@H](N)[C@@H]2c2ccc(OC)c(OC)c2)cc1 (racemic)	> 10 µM
COc1ccc(N2C(=O)[C@@H](N)[C@H]2c2ccccn2)cc1 (racemic)	6.86 µM
COc1ccc(N2C(=O)[C@@H](N)[C@H]2c2ccc(C)cc2)cc1 (racemic)	> 10 µM
COc1ccc(N2C(=O)[C@@H](N)[C@H]2c2ccccc2[N+](=O)[O-])cc1 (racemic)	> 10 µM
COc1ccc(N2C(=O)[C@@H](N)[C@@H]2c2ccc(C)cc2)cc1 (racemic)	> 10 µM
COc1ccc(N2C(=O)[C@@H](N)[C@H]2c2ccc(OC)c(OC)c2)cc1 (racemic)	6.14 µM
COc1ccc(N2C(=O)[C@@H](N)[C@@H]2c2ccccc2[N+](=O)[O-])cc1 (racemic)	> 10 µM
Cc1ccc([C@H]2[C@H](N)C(=O)N2c2ccccc2)cc1 (racemic)	> 10 µM

* * *

Entries and their measured pIC50 follow.
# System: B16F10 (murine melanoma) cells
# METHOD_NOTES: Cytotoxic activity, WST-1 assay, B16F10
# Type: cell-based
# TEST_PARAMETERS: 72 h, WST-1, triplicate
pIC50: −log10 of the molar value.

COMPOUND	COMPARATIVE_SIGN	pIC50
COc1ccc(N2C(=O)[C@@H](N)[C@H]2c2ccccn2)cc1 (racemic)	<	5.00
COc1ccc(N2C(=O)[C@@H](N)[C@@H]2c2ccc(OC)c(OC)c2)cc1 (racemic)	<	5.00
COc1ccc(N2C(=O)[C@@H](N)[C@@H]2c2ccccc2[N+](=O)[O-])cc1 (racemic)	<	5.00
Cc1ccc([C@@H]2[C@H](N)C(=O)N2c2ccccc2)cc1 (racemic)	=	6.15
COc1ccc([C@@H]2[C@H](N)C(=O)N2c2ccc(OC)cc2)cc1 (racemic)	=	5.48
COc1ccc(N2C(=O)[C@@H](N)[C@H]2c2ccccc2[N+](=O)[O-])cc1 (racemic)	=	5.23
COc1ccc([C@H]2[C@H](N)C(=O)N2c2ccccc2)cc1 (racemic)	=	5.12
COc1ccc(N2C(=O)[C@@H](N)[C@@H]2c2ccc(C)cc2)cc1 (racemic)	=	5.15
COc1ccc([C@H]2[C@H](N)C(=O)N2c2ccc(OC)cc2)cc1 (racemic)	=	5.29
Cc1ccc([C@H]2[C@H](N)C(=O)N2c2ccccc2)cc1 (racemic)	=	5.24
COc1ccc(N2C(=O)[C@@H](N)[C@@H]2c2ccccn2)cc1 (racemic)	<	5.00

* * *

# Tested on: SiHa (human cervical carcinoma) cells
# METHOD_NOTES: Cytotoxic activity, WST-1 assay, SiHa
# Assay type: cell-based
# TEST_PARAMETERS: 72 h, WST-1, triplicate
pIC50: −log10 of the molar value.
Entries and their measured pIC50 follow.

COMPOUND	COMPARATIVE_SIGN	pIC50
COc1ccc(N2C(=O)[C@@H](N)[C@H]2c2ccc(C)cc2)cc1 (racemic)	=	5.39
COc1ccc([C@H]2[C@H](N)C(=O)N2c2ccc(OC)cc2)cc1 (racemic)	=	5.14
Cc1ccc([C@@H]2[C@H](N)C(=O)N2c2ccccc2)cc1 (racemic)	=	5.63
COc1ccc(N2C(=O)[C@@H](N)[C@H]2c2ccccc2[N+](=O)[O-])cc1 (racemic)	=	5.14
COc1ccc(N2C(=O)[C@@H](N)[C@@H]2c2ccc(C)cc2)cc1 (racemic)	=	5.11
COc1ccc(N2C(=O)[C@@H](N)[C@H]2c2ccccn2)cc1 (racemic)	=	5.07
COc1ccc(N2C(=O)[C@@H](N)[C@@H]2c2ccccc2[N+](=O)[O-])cc1 (racemic)	=	5.09
COc1ccc([C@H]2[C@H](N)C(=O)N2c2ccccc2)cc1 (racemic)	=	5.15
COc1ccc(N2C(=O)[C@@H](N)[C@@H]2c2ccc(OC)c(OC)c2)cc1 (racemic)	<	5.00
